- Tested on: rat portal vein
- method.notes: Inhibition of spontaneous mechanical activity (twitch height and frequency) in isolated rat portal vein
- condition: Rattus norvegicus, values restated in text; read-out: IC₅₀ (50% of the maximum inhibition) in the inhibition of spontaneous mechanical activity in rat portal vein
readout.kind: pIC50
Reminder that pIC50 means the negative base-10 logarithm of the concentration expressed in mol/L.

Q: For O=C(NCCO[N+](=O)[O-])c1cccnc1 [Nicorandil] , what is its reported pIC50?
Result: 5.29
